Where do these numbers come from? They come from the Human Domainome abundance scans (Beltran et al. 2025).

abundance fitness reference
B1: Gamma-crystallin D, residues 90 to 170; numbered along this chain, P07320 (parent)
chain: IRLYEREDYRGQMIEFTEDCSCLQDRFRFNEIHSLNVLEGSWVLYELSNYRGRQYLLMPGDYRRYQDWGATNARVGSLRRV

- Variants of: B1
- EXPERIMENTAL PROTOCOL: abundance fitness (aPCA) (normalised: wild type 0, dead -1); higher = more abundant; growth selection in yeast, the domain comes from the species named
- MEASUREMENT PARAMETERS: Homo sapiens
Enter the number alone.

Here are 3 variants together with their reported answers.
>>> experimental_result("F27L")
-0.105
>>> experimental_result("R6E")
-0.018
>>> experimental_result("C22H")
-0.07

Please list abundance fitness recorded for the variant `L56Y`
-0.207

Give abundance fitness for the following variant: `M58I`
-0.047
